- Tested on: MS2 coat protein
- assay.text: apparent KD of MS2 coat protein; designed switch direction (-1 OFF switch, 1 ON switch): -1; higher = weaker reporter binding
- measurement.parameters: input ligand: FMN 200 uM
test.readout: apparent KD of MS2 coat protein (nM)

monomer.sequence	measured.target	test.readout	endpoint.value
CCCAUGUCAGGAUAUUAAUUGAGCAGGAAGCCCUGUUCACUUGAGAAGGGACAUGAGGAUCACCCAUGUAAAAC [Aesvea] (Eterna round: R97, puzzle: Exclusion 4)	MS2 coat protein	apparent KD of MS2 coat protein	30.1
ACAUGUCAUUGAGGAUAUUGCAAACAUGAGGAUCACCCAUGUAUACGGAUGCUCUUACGUGAGUUCGAGAAGGCGAUGUACAUU [Ex NG2 #91] (Eterna round: R96, puzzle: Exclusion NG 2)	MS2 coat protein	apparent KD of MS2 coat protein	99.7
GUGUUGUCAGGAUAUCUUACAUAACAAUCGUUGUUACCAUUGGAGAAGGGACAUGAGGAUCACCCAUGUUAACC [tap-tap-tappy46] (Eterna round: R97, puzzle: Exclusion 4)	MS2 coat protein	apparent KD of MS2 coat protein	18.9
UCACGGGACUGAGGAUAUACAUGAACCAUGGUUGUAGAAGGCAGAAGGUUGGAUCAUACACUAAACAUGAGGAUCACCCAUGUU [JR_ExcNG1_Sub028] (Eterna round: R96, puzzle: Exclusion NG 1)	MS2 coat protein	apparent KD of MS2 coat protein	16.4
GUAGAGUGAGGAUAUACGAGAUCGAAAGAUCAACGAUCCAAACAUGAGGAUCACCCAUGUAGAAGGCACUCUAC [Eli x2 4.008] (Eterna round: R97, puzzle: Exclusion 2)	MS2 coat protein	apparent KD of MS2 coat protein	270
CCGCGUGUCGGACUGGGUUACAUGAGGAUCACCCAUGUUCGGUAAACUAAGCGUUUGCUCGUCUAAACCAUUCUCGA [Eternabot (Original) Solution 24] (Eterna round: R97, puzzle: Sensor, turn-off variant 1)	MS2 coat protein	apparent KD of MS2 coat protein	175
AGUACUAUCGCGAAAGCGAUAGUACAAAAAGCAAGUGAAACAUGAGGAUCACCCAUGUCCUCAUUUGCUCGUCUUAU [Mat - Sensor v2 -ver2- JL mod - D89] (Eterna round: R96, puzzle: Sensor v2, turn-off variant 2)	MS2 coat protein	apparent KD of MS2 coat protein	12.1
AGGUGCUUCAGGAGACAUGAGGAUCACCCAUGUUGAGUUAGCGAGGAUAUCGGUAACCAUUGUGAUGAGAAGGCGCAAACCAGA [Ex NG3 #44] (Eterna round: R96, puzzle: Exclusion NG 3)	MS2 coat protein	apparent KD of MS2 coat protein	60.5
AUAAUGUAAGGAUAUCAGUCGUACAGCCUCGGCUGUACGACUGAGAAGGUACAUGAGGAUCACCCAUGUGGUCA [E4/9-A2] (Eterna round: R97, puzzle: Exclusion 4)	MS2 coat protein	apparent KD of MS2 coat protein	103
UGUGCUUCAGGAUAUACGUGACGUCCGUGAGGACGAAGGUUACAUGAGGAUCACCCAUGUAGAAGGGAAGUACU [Mat - Exclusion 2 - JL Mod - D30] (Eterna round: R97, puzzle: Exclusion 2)	MS2 coat protein	apparent KD of MS2 coat protein	110

----------
- Test system: MS2 coat protein
- assay.text: apparent KD of MS2 coat protein; designed switch direction (-1 OFF switch, 1 ON switch): 1; higher = weaker reporter binding
- measurement.parameters: Eterna round: R95; input ligand: FMN 200 uM
Listed below: apparent KD of MS2 coat protein values for each entry.
test.readout: apparent KD of MS2 coat protein

monomer.sequence	test.readout	endpoint.value
ACAAGACAUGAGGAUCACCCAUGUAUAAAUUACACAGGAUAUCGGCGGACCGCACCCGCACGAGAAGGGUGACUUC [Eszaleer] (puzzle: Same State 1)	apparent KD of MS2 coat protein	0.472 µM
GUAAGGCAAGCUUUUUUCUCGUAGUGUAAACAUGAGGAUCACCCAUGUGCUCGCCCUGGACCUUUGGAUCGCAGAAA [Tiesmain] (puzzle: Sensor for hsa-mir-208a)	apparent KD of MS2 coat protein	0.0364 µM
CUGCUACAUGAGGAUCACCCAUGUUGGAGUGAUGCAGGAUAUGUGGGACCAGAAGAUGAAACAGAAGGGCAAGGAG [JR_SS!_Sub006] (puzzle: Same State 1)	apparent KD of MS2 coat protein	0.11 µM
GUGGUGUAGAUACAGGAUAUGUUGCUCGUAACAUGAGGAUCACCCAUGUAUCUAUGAGAUUAAAUGCAGAAGGGUGCACACCACU [salish99_ss2_r3_086] (puzzle: Same State 2)	apparent KD of MS2 coat protein	0.0157 µM
AGGCUCAGCAUGCAGGAUAUAGUCGCUGCGACAUGAGGAUCACCCAUGUGGUGUGAAAGAAAGCGCUAGAAGGGUAAAGUGAGUG [Beeran] (puzzle: Same State 2)	apparent KD of MS2 coat protein	0.244 µM
